Reference source: ChEMBL document CHEMBL3124894

- target.or.test.system: Potassium voltage-gated channel subfamily A member 5 (Homo sapiens, UniProt P22460)
- Sequence (P22460 whole entry): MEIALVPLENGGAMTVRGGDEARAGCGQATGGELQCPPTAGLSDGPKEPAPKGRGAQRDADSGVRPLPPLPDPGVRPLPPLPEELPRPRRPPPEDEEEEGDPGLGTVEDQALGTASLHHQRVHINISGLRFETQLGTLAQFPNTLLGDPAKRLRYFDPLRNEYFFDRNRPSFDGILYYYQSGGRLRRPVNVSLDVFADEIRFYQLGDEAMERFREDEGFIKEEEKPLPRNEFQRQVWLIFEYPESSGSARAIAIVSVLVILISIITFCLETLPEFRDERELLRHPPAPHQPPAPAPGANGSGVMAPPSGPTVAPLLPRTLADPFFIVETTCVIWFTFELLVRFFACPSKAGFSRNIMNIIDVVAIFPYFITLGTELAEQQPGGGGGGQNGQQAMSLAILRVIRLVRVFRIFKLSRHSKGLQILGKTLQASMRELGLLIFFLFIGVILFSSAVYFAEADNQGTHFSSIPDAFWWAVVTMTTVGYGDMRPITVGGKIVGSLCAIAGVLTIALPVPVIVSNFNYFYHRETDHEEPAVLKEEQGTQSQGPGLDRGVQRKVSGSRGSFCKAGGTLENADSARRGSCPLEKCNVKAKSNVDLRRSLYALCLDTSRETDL
- protocol.summary: Inhibition of human Kv1.5 ion channel expressed in CHO cells by patch clamp assay
- Format: cell-based
pIC50: −log10 of the molar value.
outcome.measure: pIC50

INSERT INTO measurements (molecular_string, target_or_test_system, outcome_measure, readout_number) VALUES
  ('N#Cc1cccc(S(=O)(=O)N(Cc2ccc(F)cc2)C[C@@H]2CCCC(=O)N2)c1', 'Potassium voltage-gated channel subfamily A member 5 (Homo sapiens, UniProt P22460)', 'pIC50', 5.12),
  ('N#Cc1cccc(S(=O)(=O)N(Cc2ccc(F)cc2)C[C@@H]2CCC(=O)N2)c1', 'Potassium voltage-gated channel subfamily A member 5 (Homo sapiens, UniProt P22460)', 'pIC50', 5.59),
  ('NC(=O)c1ccc(N(Cc2ccc(F)cc2)S(=O)(=O)c2ccccc2F)cc1', 'Potassium voltage-gated channel subfamily A member 5 (Homo sapiens, UniProt P22460)', 'pIC50', 5.66),
  ('O=C1CC[C@@H](CN(Cc2ccc(F)cc2)S(=O)(=O)c2ccccc2)N1', 'Potassium voltage-gated channel subfamily A member 5 (Homo sapiens, UniProt P22460)', 'pIC50', 5.06),
  ('CS(=O)(=O)c1cccc(S(=O)(=O)N(Cc2ccc(F)cc2)C[C@@H]2CCC(=O)N2)c1', 'Potassium voltage-gated channel subfamily A member 5 (Homo sapiens, UniProt P22460)', 'pIC50', 5.06);

A = N#Cc1cccc(S(=O)(=O)N(Cc2ccc(F)cc2)C[C@H]2CCC(=O)N2)c1
B = CCN1C(=O)CC[C@H]1CN(Cc1ccc(F)cc1)S(=O)(=O)c1cccc(C#N)c1
C = O=C1CC[C@@H](CN(Cc2ccc(F)cc2)S(=O)(=O)c2cccc(Cl)c2)N1
D = O=S(=O)(c1ccccc1F)N(Cc1ccccc1)Cc1ccc(F)cc1
Request: Would you mind ranking these compounds by ascending pIC50? List the labels according to the requested ordering.
Result: A, D, B, C
